Test system H1N1 A/Puerto Rico/8/34 (PR8), antiviral activity in initial screen listed for each of the compounds.
QUANTITY_NAME: antiviral activity in initial screen

INSERT INTO assay_data (compound, quantity_name, reading) VALUES
  ('N=C(N)NC(=O)c1nc(Cl)c(N)nc1N [Amiloride]', 'antiviral activity in initial screen', 'no antiviral activity'),
  ('CC(O)(P(=O)(O)O)P(=O)(O)O [Etidronic Acid]', 'antiviral activity in initial screen', 'no antiviral activity');

###

- Tested on: pH1N1 (H1N1pdm09 A/Mexico/InDRE4487/2009)
- ASSAY_INFO: microbe, parasite or virus in culture
- Type: cell-based, influenza A virus
QUANTITY_NAME: EC50

INSERT INTO assay_data (compound, quantity_name, reading) VALUES
  ('CCC(CC)O[C@@H]1C=C(C(=O)O)C[C@H](N)[C@H]1NC(C)=O [oseltamivir carboxylate]', 'EC50', '~200 nM');
